# test_system: mouse GnRH receptor (Mus musculus)
# Construct: expressed in transfected cells; host or cells: 293 cells
# Sequence (Q01776 whole entry): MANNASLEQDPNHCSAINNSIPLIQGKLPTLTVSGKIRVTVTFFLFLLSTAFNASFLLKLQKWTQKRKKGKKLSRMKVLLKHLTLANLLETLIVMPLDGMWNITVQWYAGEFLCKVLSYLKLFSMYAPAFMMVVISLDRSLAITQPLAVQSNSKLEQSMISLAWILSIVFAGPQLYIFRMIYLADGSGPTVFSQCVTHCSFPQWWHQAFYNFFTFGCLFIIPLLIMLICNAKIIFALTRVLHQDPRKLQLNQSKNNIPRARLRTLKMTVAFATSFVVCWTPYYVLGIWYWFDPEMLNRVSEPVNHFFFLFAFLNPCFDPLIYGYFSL
# procedure_text: Radioligand binding, 125I-GnRH-A, 293 cells expressing mouse GnRH receptors
# condition_info: 10 uM; read-out: % Inhib. @ 10 uM mGnRH
Listed compounds paired with reported inhibition at 10 µM
Quick reminder: number only, in %, skip the unit.

# count of solved cases: 7
[[record]]
compound = "Cc1cc2c(cc1Cc1ccc(C(=O)N3CCN(C4CCCCC4)CC3)o1)C(C)(C)CCC2(C)C [drawing 1265]"
test_system = "mouse GnRH receptor (Mus musculus)"
quantitative_result = 102

[[record]]
compound = "CCOC(CN(CCc1ccccc1)C(=O)c1ccc(Cc2cc3c(cc2C)C(C)(C)CCC3(C)C)o1)OCC [drawing 1296]"
test_system = "mouse GnRH receptor (Mus musculus)"
quantitative_result = 66

[[record]]
compound = "Cc1cc2c(cc1Cc1ccc(C(=O)N3CCN(CCc4ccccc4)CC3)o1)C(C)(C)CCC2(C)C"
test_system = "mouse GnRH receptor (Mus musculus)"
quantitative_result = 97

[[record]]
compound = "Cc1cc2c(cc1Cc1ccc(C(=O)N3CCN(CC(=O)N(C)c4ccccc4)CC3)o1)C(C)(C)CCC2(C)C"
test_system = "mouse GnRH receptor (Mus musculus)"
quantitative_result = 103

[[record]]
compound = "Cc1cc2c(cc1Cc1ccc(C(=O)N(Cc3ccc(C(C)C)cc3)Cc3cccnc3)o1)C(C)(C)CCC2(C)C [drawing 1474]"
test_system = "mouse GnRH receptor (Mus musculus)"
quantitative_result = 76

[[record]]
compound = "COCC(C)NC(=O)c1ccc(Cc2cc3c(cc2C)C(C)(C)CCC3(C)C)o1 (centres unmarked) [drawing 1454]"
test_system = "mouse GnRH receptor (Mus musculus)"
quantitative_result = 91

[[record]]
compound = "Cc1cc2c(cc1Cc1ccc(C(=O)NC(C)(C)CNC(=O)C(F)(F)F)o1)C(C)(C)CCC2(C)C"
test_system = "mouse GnRH receptor (Mus musculus)"
quantitative_result = 37


## Input Find the measured inhibition at 10 µM: item Cc1cc2c(cc1Cc1ccc(C(=O)NCCc3ccc(Oc4ccccc4)cc3)o1)C(C)(C)CCC2(C)C [drawing 1529] , target or system mouse GnRH receptor (Mus musculus).
## Output 57

* * *

# test_system: TRH (Homo sapiens, UniProt P34981)
# Sequence (P34981 whole entry): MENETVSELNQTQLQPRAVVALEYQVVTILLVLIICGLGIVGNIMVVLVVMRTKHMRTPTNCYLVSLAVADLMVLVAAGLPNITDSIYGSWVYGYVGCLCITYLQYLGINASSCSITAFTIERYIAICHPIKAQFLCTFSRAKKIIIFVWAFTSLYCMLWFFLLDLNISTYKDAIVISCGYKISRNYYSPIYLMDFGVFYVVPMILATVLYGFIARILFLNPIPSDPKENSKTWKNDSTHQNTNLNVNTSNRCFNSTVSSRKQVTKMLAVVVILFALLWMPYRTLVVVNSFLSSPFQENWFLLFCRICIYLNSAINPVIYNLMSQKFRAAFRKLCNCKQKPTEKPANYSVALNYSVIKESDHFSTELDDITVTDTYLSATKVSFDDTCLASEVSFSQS
measured_property: Ki

## Input Find the measured Ki: item COc1cccc(OC)c1NC(=O)c1ccc(Cc2cc3c(cc2C)C(C)(C)CCC3(C)C)o1 , target or system TRH (Homo sapiens, UniProt P34981).
## Output > 1000 nM

* * *

# test_system: mouse GnRH receptor (Mus musculus)
# Construct: expressed in transfected cells; host or cells: 293 cells
# procedure_text: Radioligand binding, 125I-GnRH-A, 293 cells expressing mouse GnRH receptors
# condition_info: 10 uM; read-out: % Inhib. @ 10 uM mGnRH
# Protocol: All compounds were diluted in 1% DMSO (final assay concentration) in binding assay buffer. […] Reactions were terminated by rapid filtration onto 96-well Packard GF/C filters soaked in 0.1% polyethyleneimine. Filters were washed three times with PBS buffer, dried and counted on a Packard Topcount by liquid scintillation counting. […] The reaction mixture was vortexed and incubated for 1 min at room temperature. […] Fractions were assessed for biological activity by radioligand binding.
measured_property: inhibition at 10 µM (%)
Quick reminder: number only, in %, skip the unit.

# count of solved cases: 5
[[record]]
compound = "CCOC(=O)N1CCN(C(=O)c2ccc(Cc3cc4c(cc3C)C(C)(C)CCC4(C)C)o2)CC1 [drawing 1530]"
measured_property = "inhibition at 10 µM"
quantitative_result = 65

[[record]]
compound = "Cc1cc2c(cc1Cc1ccc(C(=O)NCCn3c([N+](=O)[O-])cnc3C)o1)C(C)(C)CCC2(C)C [drawing 1486]"
measured_property = "inhibition at 10 µM"
quantitative_result = 42

[[record]]
compound = "Cc1cc2c(cc1Cc1ccc(C(=O)N(Cc3cccc4ccccc34)C3CCN(Cc4ccccc4)C3)o1)C(C)(C)CCC2(C)C (centres unmarked) [drawing 1563]"
measured_property = "inhibition at 10 µM"
quantitative_result = 57

[[record]]
compound = "CCN(CC)CCNC(=O)c1ccc(Cc2cc3c(cc2C)C(C)(C)CCC3(C)C)o1 [drawing 1506]"
measured_property = "inhibition at 10 µM"
quantitative_result = 94

[[record]]
compound = "Cc1cc2c(cc1Cc1ccc(C(=O)N3CCN(C(C)c4ccccc4)CC3)o1)C(C)(C)CCC2(C)C (centres unmarked)"
measured_property = "inhibition at 10 µM"
quantitative_result = 91


## Input State the recorded inhibition at 10 µM for this entry: Cc1cc2c(cc1Cc1ccc(C(=O)N(C)C3CCN(C)C3)o1)C(C)(C)CCC2(C)C (centres unmarked)
## Output 89

## Input State the recorded inhibition at 10 µM for this entry: Cc1cc2c(cc1Cc1ccc(C(=O)NC(CO)C(C)C)o1)C(C)(C)CCC2(C)C (centres unmarked) [drawing 1478]
## Output 87

## Input State the recorded inhibition at 10 µM for this entry: CCN(Cc1ccc(C)cc1)C(=O)c1ccc(Cc2cc3c(cc2C)C(C)(C)CCC3(C)C)o1 [drawing 1543]
## Output 79

Reference for the values: patent US7101878B1
